Reported melting point values for the following molecules.
measurement-name: melting point

- molecule: "CN1CCC(C2Cc3ccccc3C(=O)N2)CC1 (stereo unspecified)"
  experimental-value: "139 to 141 °C"
- molecule: "CCCc1nc2c(ccc3[nH]c4cnc(C(=O)OC(C)C)c(C)c4c32)o1"
  experimental-value: "223 to 224 °C"
- molecule: "CC(C)(C)NC(=O)COc1cc2c(cc1C#Cc1ccccc1)NC(=O)CC(c1cccc(C#N)c1)=N2"
  experimental-value: "> 250 °C"
- molecule: "NC(=O)c1cnn2c(-c3ccccc3)ccnc12"
  experimental-value: "236 to 238 °C"
- molecule: "CC(O)C#CC1CCC2C3CCC4CC(O[Si](c5ccccc5)(c5ccccc5)C(C)(C)C)CCC4(C)C3CCC12C (stereo unspecified)"
  experimental-value: "68 to 70 °C"
- molecule: "ClC1=NC(Cl)(Cl)N=C1Cl"
  experimental-value: "85 to 87 °C"
- molecule: "CCCOc1ccc(S(=O)(=O)N2CC[C@@H](N(C)C)C2)cc1-c1nc2cc3ncn(Cc4ccc(F)cc4)c3cc2c(=O)[nH]1"
  experimental-value: "223 to 225 °C"
- molecule: "N#Cc1cccc(Br)c1N"
  experimental-value: "119 to 120 °C"
- molecule: "ClCc1nccn1Cc1ccccc1"
  experimental-value: "180 to 182 °C"
- molecule: "CCOc1cccc(CN2CCc3cc(O)ccc3C2)c1"
  experimental-value: "120 to 121 °C"
- molecule: "O=c1[nH]c2c3ccccc3ccc2n(C2CC2)c1=O"
  experimental-value: "307 °C"
- molecule: "CN(C)CC(=O)OCC1CC(c2ccc(-c3ccc(N4C[C@H](Cn5ccnn5)OC4=O)cc3F)cn2)=NO1 (stereo partly specified)"
  experimental-value: "185 to 198 °C"
- molecule: "COC(=O)CC(=O)N1CCC(c2ccc(OC)c(OC3CCCC3)c2)CC1"
  experimental-value: "78 to 79 °C"
- molecule: "CN(C)CC1CCCCN1CCNC(=O)N1c2ccccc2NC(=O)c2ccccc21 (stereo unspecified)"
  experimental-value: "152 to 154 °C"
- molecule: "COc1ccc(-c2ccco2)c2c1c(CCN(C)C)cn2C"
  experimental-value: "90 to 93 °C"
- molecule: "CCc1cnn(CC(=O)O)c1OCCn1cc(C(=O)NCc2ccc(C(F)(F)F)cc2)c(OC(C)C)n1"
  experimental-value: "183 to 184 °C"
- molecule: "O=C(NCCc1nnn[nH]1)C(CS)C(F)(F)F (stereo unspecified)"
  experimental-value: "182 to 184 °C"
- molecule: "O=C(NN1CCCCC1)NS(=O)(=O)c1ccc(CCN2C(=O)c3ccccc3C2(O)c2ccccc2)cc1 (stereo unspecified)"
  experimental-value: "228 °C"
- molecule: "Cc1ccccc1NC(C(=O)O)c1c(Cl)ccc(Cl)c1Cl (stereo unspecified)"
  experimental-value: "193 °C"
- molecule: "CNC(=NS(=O)(=O)c1ccc(C)cc1)NCCSCc1[nH]cnc1C"
  experimental-value: "138 °C"
- molecule: "CC(=O)C=Cc1ccc(OCc2ccccc2)cc1"
  experimental-value: "106 to 107 °C"
